# System: G(−) bacterial strains
# measurement_notes: Dilution antimicrobial susceptibility tests (MIC, NCCLS agar dilution / broth dilution)
# Type: cell-based, Gram-negative organisms
# measurement_context: strain #17 Morganella Morganii; unit assumed
So I've got a bunch of compounds here, and I need their log10(MIC) values.
Scale: log10; quantity: MIC; unit before log: µg/mL

Look over these answered cases.
Query: Requested read-out: log10(MIC). Entry: C[C@@H](O)C1C(=O)N2C(C(=O)O)=C(CN3CC[C@H](C#N)C3)[C@H](C)C12 (stereo partly shown) [Compound 7]
Reply: 0.00

Query: Entry under review: C[C@@H](O)C1C(=O)N2C(C(=O)O)=C(CN3CC[C@H](NC=N)C3)[C@H](C)C12 (stereo partly shown) [Compound 84] . Reported log10(MIC)?
Reply: 0.60

Query: Give its log10(MIC) value. Item: C[C@@H](O)C1C(=O)N2C(C(=O)O)=C(CN3CC[C@@H](NC(=N)N)C3)[C@H](C)C12 (stereo partly shown) [Compound 156]
Reply: 0.60

Query: Recorded log10(MIC) for C[C@@H](O)C1C(=O)N2C(C(=O)O)=C(CN3CC[C@H](NC(=O)C(F)(F)F)C3)[C@H](C)C12 (stereo partly shown) [Compound 37] , please?
Reply: 0.30

Query: # input compound: CC(O)C1C(=O)N2C(C(=O)O)=C(CN3CC(O)C(C(=N)N)C3)C(C)C12 (mixture of isomers) [Compound 185b] ; wanted: its log10(MIC)
Reply: -0.30

Could you report log10(MIC) for every entry in the following list?
1. C[C@@H](O)C1C(=O)N2C(C(=O)[O-])=C(C[N+]3(C)CC[C@H](NC(=N)N)C3)[C@H](C)C12 (stereo partly shown) [Compound 67]
2. CN[C@H]1CCN(CC2=C(C(=O)O)N3C(=O)C([C@@H](C)O)C3[C@H]2C)C1 (stereo partly shown) [Compound 43]
3. C[C@@H](O)C1C(=O)N2C(C(=O)O)=C(CN3CC(N)C3)[C@H](C)C12 (stereo partly shown) [Compound 93]
4. C[C@@H](O)C1C(=O)N2C(C(=O)O)=C(CN3CC[C@H](NS(N)(=O)=O)C3)[C@H](C)C12 (stereo partly shown) [Compound 72]
5. C[C@@H](O)C1C(=O)N2C(C(=O)O)=C(CN3CC[C@H](C(=O)NC(=N)N)C3)[C@H](C)C12 (stereo partly shown) [Compound 143]

Reply:
1: 1.20; 2: 0.30; 3: 0.90; 4: 0.60; 5: 1.20

---

# Tested on: G(−) bacterial strains
# measurement_notes: Dilution antimicrobial susceptibility tests (MIC, NCCLS agar dilution / broth dilution)
# Type: cell-based, Gram-negative organisms
# measurement_context: strain #13 Escherichia coli; unit assumed
Threshold-based label: MIC under 0.5 µg/mL gives T, MIC not under 0.5 µg/mL gives F.

// known answers, use as guide
Query: Record C[C@@H](O)C1C(=O)N2C(C(=O)O)=C(CN3CC[C@H](NC(N)=O)C3)[C@H](C)C12 (stereo partly drawn) : is its MIC strictly below 0.5 µg/mL?
Reply: F

Query: Identify whether the compound CC(=O)N[C@H]1CCN(CC2=C(C(=O)O)N3C(=O)C([C@@H](C)O)C3[C@H]2C)C1 (stereo partly drawn) records MIC below 0.5 µg/mL.
Reply: F

Query: API: query returns whether the compound falls strictly under 0.5 µg/mL in MIC. Query: CC(O)C1C(=O)N2C(C(=O)O)=C(CN3CC(O)C(C(=N)N)C3)C(C)C12 (mixture of isomers) [Compound 185b]
Reply: T

Query: Hello, I'm reviewing records and need to know if MIC of C[C@@H](O)C1C(=O)N2C(C(=O)O)=C(CN3CC[C@H](N)C3)[C@H](C)C12 (stereo partly drawn) is below 0.5 µg/mL. Could you check?
Reply: T

Query: Is MIC of C[C@@H](O)C1C(=O)N2C(C(=O)O)=C(CN3CC(NS(N)(=O)=O)C3)[C@H](C)C12 (stereo partly drawn) strictly below 0.5 µg/mL?
Reply: T

Query: Please let me know if C[C@@H](O)C1C(=O)N2C(C(=O)O)=C(CN3CC[C@H](C#N)C3)[C@H](C)C12 (stereo partly drawn) shows MIC below 0.5 µg/mL.
Reply: T

Query: Confirm or reject: MIC of CC(O)C1C(=O)N2C(C(=O)O)=C(CN3CCC(C(=N)N)C3)C(C)C12 (stereo not drawn) [Compound 185a] lies strictly below 0.5 µg/mL
Reply: T

Query: For this compound, is MIC lower than 0.5 µg/mL? C[C@@H](O)C1C(=O)N2C(C(=O)O)=C(CN3CC(C(N)=O)C3)[C@H](C)C12 (stereo partly drawn)
Reply: T

Next:
Query: Strictly below 0.5 µg/mL: is that where MIC of C[C@@H](O)C1C(=O)N2C(C(=O)O)=C(CN3CC(NC(=N)N)C3)[C@H](C)C12 (stereo partly drawn) sits?
Reply: T

Query: Problem: For the compound C[C@@H](O)C1C(=O)N2C(C(=O)O)=C(CN3CC[C@H](N(C)C)C3)[C@H](C)C12 (stereo partly drawn) , is MIC under 0.5 µg/mL?
Reply: T

All figures here come from patent US9937151B2.
